For Acetylcholinesterase (Homo sapiens, UniProt P22303), measured IC50 is reported for the entries below.
Use nM as the unit, but write only the number.

Below, 3 compounds whose answers are already recorded.
- chemical_smiles: "COc1cc2oc(-c3cccc(OCC(=O)NCCCCCNc4c5c(nc6cc(Cl)ccc46)CCCC5)c3)cc(=O)c2c(OC)c1OC"
  IC50, nM: 17.3
- chemical_smiles: "COc1cc2oc(-c3ccc(OCC(=O)NCCCCCNc4c5c(nc6cc(Cl)ccc46)CCCC5)cc3)cc(=O)c2c(OC)c1OC"
  IC50, nM: 6.9
- chemical_smiles: "COc1cc2oc(-c3cccc(OCC(=O)NCCCCCCNc4c5c(nc6cc(Cl)ccc46)CCCC5)c3)cc(=O)c2c(OC)c1OC"
  IC50, nM: 32.5

Could you share what IC50 was measured for COc1cc2oc(-c3ccc(OCC(=O)NCCCCCCNc4c5c(nc6cc(Cl)ccc46)CCCC5)cc3)cc(=O)c2c(OC)c1OC , tested on Acetylcholinesterase (Homo sapiens, UniProt P22303)?
21.6

====

For Acetylcholinesterase (Electrophorus electricus, UniProt O42275), measured pIC50 is reported for the entries below.
# log scale: pIC50 equals minus log10 of the concentration in mol/L

Could you share what pIC50 was measured for COc1cc2oc(-c3ccc(OCC(=O)NCCCCNc4c5c(nc6cc(Cl)ccc46)CCCC5)cc3)cc(=O)c2c(OC)c1OC , tested on Acetylcholinesterase (Electrophorus electricus, UniProt O42275)?
7.28

Could you share what pIC50 was measured for COc1cc2oc(-c3ccc(OCC(=O)NCCCCCCNc4c5c(nc6cc(Cl)ccc46)CCCC5)cc3)cc(=O)c2c(OC)c1OC , tested on Acetylcholinesterase (Electrophorus electricus, UniProt O42275)?
7.38

Could you share what pIC50 was measured for COc1cc2oc(-c3ccc(OCC(=O)NCCCNc4c5c(nc6cc(Cl)ccc46)CCCC5)cc3)cc(=O)c2c(OC)c1OC , tested on Acetylcholinesterase (Electrophorus electricus, UniProt O42275)?
7.53

Could you share what pIC50 was measured for COc1cc2oc(-c3cccc(OCC(=O)NCCCCCCNc4c5c(nc6cc(Cl)ccc46)CCCC5)c3)cc(=O)c2c(OC)c1OC , tested on Acetylcholinesterase (Electrophorus electricus, UniProt O42275)?
7.33

====

Known pIC50 of a selection of compounds
tested_target: Cholinesterase (Equus caballus)
Sequence (P81908 whole entry): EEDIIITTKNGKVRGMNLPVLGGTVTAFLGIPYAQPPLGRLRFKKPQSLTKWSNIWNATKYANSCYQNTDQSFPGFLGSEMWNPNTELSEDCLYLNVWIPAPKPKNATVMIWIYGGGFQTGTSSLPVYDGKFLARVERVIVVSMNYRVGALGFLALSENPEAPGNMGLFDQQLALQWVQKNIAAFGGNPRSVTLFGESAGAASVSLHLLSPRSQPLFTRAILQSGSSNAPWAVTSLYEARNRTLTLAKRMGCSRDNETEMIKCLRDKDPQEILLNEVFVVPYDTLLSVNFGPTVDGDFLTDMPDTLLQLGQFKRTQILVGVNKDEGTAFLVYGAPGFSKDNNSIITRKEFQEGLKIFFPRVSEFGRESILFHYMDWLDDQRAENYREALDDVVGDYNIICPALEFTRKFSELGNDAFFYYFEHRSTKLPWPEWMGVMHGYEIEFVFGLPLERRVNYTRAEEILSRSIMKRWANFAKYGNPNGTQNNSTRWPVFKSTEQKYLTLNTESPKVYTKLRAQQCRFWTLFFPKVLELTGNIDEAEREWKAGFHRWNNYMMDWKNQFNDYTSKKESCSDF
protocol_summary: Inhibition of equine serum BChE using acetylthiocholine chloride as substrate after 15 mins by Ellman spectrophotometric method
# log scale: pIC50 equals minus log10 of the concentration in mol/L

- chemical_smiles: "Nc1c2c(nc3cc(Cl)ccc13)CCCC2"
  pIC50: 7.78
- chemical_smiles: "COc1cc2oc(-c3ccc(OCC(=O)NCCCCCCNc4c5c(nc6cc(Cl)ccc46)CCCC5)cc3)cc(=O)c2c(OC)c1OC"
  pIC50: 6.49
- chemical_smiles: "COc1cc2oc(-c3ccc(OCC(=O)NCCCNc4c5c(nc6cc(Cl)ccc46)CCCC5)cc3)cc(=O)c2c(OC)c1OC"
  pIC50: 6.26
- chemical_smiles: "COc1cc2oc(-c3cccc(OCC(=O)NCCCCNc4c5c(nc6cc(Cl)ccc46)CCCC5)c3)cc(=O)c2c(OC)c1OC"
  pIC50: 5.99
- chemical_smiles: "COc1cc2oc(-c3ccc(OCC(=O)NCCCCCNc4c5c(nc6cc(Cl)ccc46)CCCC5)cc3)cc(=O)c2c(OC)c1OC"
  pIC50: 6.33
- chemical_smiles: "COc1cc2oc(-c3ccc(OCC(=O)NCCCCNc4c5c(nc6cc(Cl)ccc46)CCCC5)cc3)cc(=O)c2c(OC)c1OC"
  pIC50: 5.91
- chemical_smiles: "COc1cc2oc(-c3cccc(OCC(=O)NCCCNc4c5c(nc6cc(Cl)ccc46)CCCC5)c3)cc(=O)c2c(OC)c1OC"
  pIC50: 6.09
- chemical_smiles: "COc1cc2oc(-c3cccc(OCC(=O)NCCCCCNc4c5c(nc6cc(Cl)ccc46)CCCC5)c3)cc(=O)c2c(OC)c1OC"
  pIC50: 6.54

Okay, now this compound:
Param item = COc1cc2oc(-c3cccc(OCC(=O)NCCCCCCNc4c5c(nc6cc(Cl)ccc46)CCCC5)c3)cc(=O)c2c(OC)c1OC ; retrieve measured pIC50.
6.01

Source of measurements: ChEMBL document CHEMBL3400132
